All values here come from patent US20230174670A1.

Biological target: T1, recombinant human CD25-His protein (human, UniProt P01589 22-213)
T1 construct: range 22-213; Purchased from Sino Biological Inc. Printed construct Met1-Cys213 includes the signal peptide
T1 sequence (looked up): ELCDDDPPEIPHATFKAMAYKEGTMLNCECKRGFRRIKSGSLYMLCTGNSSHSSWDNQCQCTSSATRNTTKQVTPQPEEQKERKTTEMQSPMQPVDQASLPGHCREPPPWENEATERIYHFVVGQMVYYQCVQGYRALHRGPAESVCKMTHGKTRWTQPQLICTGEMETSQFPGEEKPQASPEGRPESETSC
Test: ELISA, plate coated with human CD25-His
Readings of pEC50 for the listed binders
Lab note — pEC50 values are minus log10 of concentrations in M.

- Binder: "cAb037 (antibody, human IgG1, V domains shown, also called mAb037/cAb037) VH: QVRLQQSGPELVKPGASVQMSCKASGYTFTDYYINWVKQRPGQGLEWIAWIFPGNGNTYFNENFKDKATLSVDKFSSTAFMLLSSLTSEDSAVYFCARATYDHGGYWYFDVWGTGTTVTVSS VL: QIVLSQSPAILSASPGEKVTMTCRASSSVSHIHWYQQKPGSSPKPWIYATSNLASGVPGRFSGSGSGTSYSLTVSRVEAEDAATYYCQHWNSFTFGGGTELELK"
  pEC50: 9.78
- Binder: "cAb042 (antibody, human IgG1, V domains shown, also called mAb042/cAb042) VH: QVQLQQSGPELVKSGASVKLSCKASGYTFTTYDINWMKQRPGQGLEWIGWIYPRDGSTKYNAKFKGKATLTEDTSSNTAFMELHSLTSEDSAVYFCARERIYDGSFDYWGQGTTLTVSS VL: DIVMTQSPSSLSVSAGEKVSMRCKSSQRLFNSRDQKNYLAWYQQKPGQPPKLLIYGASTRESGVPDRFTGSGSGTDFTLTISSVQAEDLAVYYCQNDHIYPLTFGAGTKLELK"
  pEC50: 9.65
- Binder: "cAb004 (antibody, human IgG1, V domains shown, also called mAb004/cAb004) VH: EVQLQQSGAELVRPGASVKLSCTASGFNIKDDYIQWVKQRPEQGLEWIGWIDPENGDTEYASKFQDKATITSDTSSNTAYLQLSSLTSEDTAVYYCAATTFYASNYGFAYWGQGTLVTVSA VL: DVVMTQTPLSLPVSLGDQASISCRSSQSLVHSNGNTYLHWYLQKPGQSPQLLIYKVSNRFSGVPDRFSGSGSGTDFTLKISRLEAEDLGVYFCSQSTHVPYTFGGGTKLEIK"
  pEC50: 9.59
- Binder: "cAb029 (antibody, human IgG1, V domains shown, also called mAb029/cAb029) VH: QVTLKESGPGILQPSQTLSLTCSFSGFSLSTFGMGVGWIRQPSGKGLEWLAHIWWDDDEYYNPALKSRLTISKDTSKNQVFLKIANVDTADTATYYCTRIMLTTGYFDVWGTGTTVTVSS VL: EIVLTQSPALMAASPGEKVTITCTVSSGITSSNLHWYQQKSETSPKPWIYGTSNLASGVPVRFSGSGSGTSYSLTISSMEAEDAATYYCQQWSSYPFTFGSGTRLEIK"
  pEC50: 9.78

Next item in the queue.
Measured pEC50 of cAb028 (antibody, human IgG1, V domains shown, also called mAb028/cAb028) VH: EVQLQQSGAELVRPGASVKLSCTASGFNIKNDYVHWVKQRPEQGLEWIGYIDPDNGDTEYASKFLGKATITADTSSNTAYLQLSSLTSEGTAVYYCTTDDTSYGMFACWGLGTLVTVSA VL: DVLMTQTPLSLPVSLGDQASISCRSSQSIVHSNGNTYLEWYLQKPGQSPKLLIYKVSNRFSGVPDRFSGSGSGTDFTLKISRVEAEDLGVYYCFQGSHVPWTFGGGTKLEIK : 9.46
